- Subject Of Test: Tyrosine-protein kinase TXK (Homo sapiens)
- Sequence (P42681 whole entry): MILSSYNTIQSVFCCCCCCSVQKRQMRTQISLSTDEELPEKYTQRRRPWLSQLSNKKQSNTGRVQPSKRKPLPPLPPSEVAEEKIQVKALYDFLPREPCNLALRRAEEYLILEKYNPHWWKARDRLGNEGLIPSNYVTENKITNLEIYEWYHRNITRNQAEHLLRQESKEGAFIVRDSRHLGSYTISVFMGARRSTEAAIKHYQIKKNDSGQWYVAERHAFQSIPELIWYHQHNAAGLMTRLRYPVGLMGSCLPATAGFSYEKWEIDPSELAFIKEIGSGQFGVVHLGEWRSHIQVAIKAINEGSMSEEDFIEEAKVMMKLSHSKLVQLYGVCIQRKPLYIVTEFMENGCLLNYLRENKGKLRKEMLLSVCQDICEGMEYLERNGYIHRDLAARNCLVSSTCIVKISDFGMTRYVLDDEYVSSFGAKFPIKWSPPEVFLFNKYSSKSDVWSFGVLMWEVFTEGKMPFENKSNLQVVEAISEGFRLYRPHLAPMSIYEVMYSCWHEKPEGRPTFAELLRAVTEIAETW
Assay Endpoint: IC50 (µM)
Numeric only. Scale: µM

Task: // fetch Tyrosine-protein kinase TXK (Homo sapiens) IC50 for COc1cc(C)c(Sc2cnc(NC(=O)c3ccc(CNC(C)C(C)(C)C)cc3)s2)cc1C(=O)N1CCN(C(C)=O)CC1 (configuration not stated)
Output: 11

----------
- Subject Of Test: Epidermal growth factor receptor (Homo sapiens, UniProt P00533)
- Sequence (P00533 whole entry): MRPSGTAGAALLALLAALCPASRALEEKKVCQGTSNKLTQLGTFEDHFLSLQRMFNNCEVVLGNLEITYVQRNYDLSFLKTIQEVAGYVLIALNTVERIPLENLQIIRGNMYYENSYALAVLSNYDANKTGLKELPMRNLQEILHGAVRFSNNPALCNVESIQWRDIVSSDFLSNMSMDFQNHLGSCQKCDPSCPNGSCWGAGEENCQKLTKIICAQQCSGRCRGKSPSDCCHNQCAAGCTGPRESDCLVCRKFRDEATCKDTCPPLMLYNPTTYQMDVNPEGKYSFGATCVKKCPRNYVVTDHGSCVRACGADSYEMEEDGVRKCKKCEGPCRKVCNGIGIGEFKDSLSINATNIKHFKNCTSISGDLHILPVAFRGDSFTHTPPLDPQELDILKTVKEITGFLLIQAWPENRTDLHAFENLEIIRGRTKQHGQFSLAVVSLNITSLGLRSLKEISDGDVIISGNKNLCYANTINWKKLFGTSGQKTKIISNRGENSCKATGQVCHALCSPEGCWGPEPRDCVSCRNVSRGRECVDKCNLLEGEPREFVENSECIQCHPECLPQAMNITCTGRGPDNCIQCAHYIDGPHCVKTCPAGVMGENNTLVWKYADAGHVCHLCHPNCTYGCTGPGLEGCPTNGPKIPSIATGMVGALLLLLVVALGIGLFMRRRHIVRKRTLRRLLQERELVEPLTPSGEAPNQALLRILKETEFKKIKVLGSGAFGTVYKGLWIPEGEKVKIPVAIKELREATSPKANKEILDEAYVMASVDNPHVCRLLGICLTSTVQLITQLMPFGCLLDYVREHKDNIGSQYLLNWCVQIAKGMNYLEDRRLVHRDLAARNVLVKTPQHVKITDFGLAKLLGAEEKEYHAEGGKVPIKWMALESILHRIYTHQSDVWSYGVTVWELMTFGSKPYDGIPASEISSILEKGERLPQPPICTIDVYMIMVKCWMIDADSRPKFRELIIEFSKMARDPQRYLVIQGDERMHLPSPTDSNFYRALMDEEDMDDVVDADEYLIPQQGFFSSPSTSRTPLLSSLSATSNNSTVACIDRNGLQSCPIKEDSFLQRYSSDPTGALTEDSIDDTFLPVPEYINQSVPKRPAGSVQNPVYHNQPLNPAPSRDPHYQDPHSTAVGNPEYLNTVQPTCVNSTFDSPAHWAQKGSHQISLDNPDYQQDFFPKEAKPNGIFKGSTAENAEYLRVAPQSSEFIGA
pIC50: −log10 of the molar value.
Assay Endpoint: pIC50

Task: Quick one: pIC50 for CC(=O)N1CCN(C(=O)c2cc(CSc3cnc(NC(=O)c4ccc(CNC(C)C(C)(C)C)cc4)s3)cc(C)c2C)CC1 (stereo unspecified) ?
Output: < 4.30
